Attribute: IC50
# Test System: Recombinant ROCK2 (amino acids 5-554) (Homo sapiens, UniProt O75116)
# Construct: ROCK2 (amino acids 5-554); by word order, ROCK2 from SignalChem
# Sequence (O75116 5-554): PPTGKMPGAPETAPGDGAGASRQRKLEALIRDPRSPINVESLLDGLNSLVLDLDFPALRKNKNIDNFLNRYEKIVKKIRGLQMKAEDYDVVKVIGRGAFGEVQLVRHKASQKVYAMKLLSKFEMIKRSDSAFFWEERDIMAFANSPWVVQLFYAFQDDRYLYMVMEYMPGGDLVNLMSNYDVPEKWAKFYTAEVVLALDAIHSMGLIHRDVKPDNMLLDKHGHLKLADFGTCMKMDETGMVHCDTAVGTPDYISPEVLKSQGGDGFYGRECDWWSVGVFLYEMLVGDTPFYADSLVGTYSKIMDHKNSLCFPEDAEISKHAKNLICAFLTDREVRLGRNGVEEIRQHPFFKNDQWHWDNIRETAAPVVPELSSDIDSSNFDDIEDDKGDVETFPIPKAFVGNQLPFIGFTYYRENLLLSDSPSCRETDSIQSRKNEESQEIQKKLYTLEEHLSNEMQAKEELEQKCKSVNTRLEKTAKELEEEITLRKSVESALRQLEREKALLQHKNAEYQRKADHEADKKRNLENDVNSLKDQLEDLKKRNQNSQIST
# Protocol Text: ROCK inhibition assay, LANCE Ultra TR-FRET kinase assay (ROCK2)
# Measurement Setup: 4 μM ATP, 50 nM ULight-CREBtide substrate
Assay Endpoint: IC50

COc1cccc(CN2CCc3cc(-c4cn[nH]c4)ccc3C2=O)c1 : 100 to 500 nM
O=C(Nc1cccc(Cn2ccc3cc(-c4c[nH]nc4C(F)F)ccc3c2=O)c1)c1cccnc1 : 10 to 100 nM
CNC(=O)c1cccc(C(C)n2cnc3cc(-c4cn[nH]c4Cl)ccc3c2=O)c1 (centres unmarked) : < 10 nM
O=C(Nc1cccc(Cn2ccc3cc(-c4c[nH]nc4C(F)F)ccc3c2=O)c1)c1ccccc1 : 10 to 100 nM
Cc1nocc1-c1ccc2c(=O)n(Cc3cccc(C(=O)NC4COC4)c3)ccc2c1 : 10 to 100 nM
O=C(NC1CCNCC1)c1cc(F)cc(Cn2ccc3cc(-c4c[nH]nc4C(F)(F)F)ccc3c2=O)c1 : < 10 nM
CC(O)c1cn(Cc2cccc(C(=O)NCCc3ccccn3)c2)c(=O)c2ccc(-c3c[nH]nc3Cl)cc12 (centres unmarked) : < 10 nM
Cc1nocc1-c1cc2ccn(Cc3cc(F)cc(C(=O)NCC4CCN(C)CC4)c3)c(=O)c2cn1 : < 10 nM

* * *

# Test System: Recombinant ROCK1 (amino acids 1-477) (Homo sapiens)
# Construct: Recombinant ROCK1 (amino acids 1-477); by word order, ROCK1 from Carna Biosciences
# Sequence (Q13464 1-477): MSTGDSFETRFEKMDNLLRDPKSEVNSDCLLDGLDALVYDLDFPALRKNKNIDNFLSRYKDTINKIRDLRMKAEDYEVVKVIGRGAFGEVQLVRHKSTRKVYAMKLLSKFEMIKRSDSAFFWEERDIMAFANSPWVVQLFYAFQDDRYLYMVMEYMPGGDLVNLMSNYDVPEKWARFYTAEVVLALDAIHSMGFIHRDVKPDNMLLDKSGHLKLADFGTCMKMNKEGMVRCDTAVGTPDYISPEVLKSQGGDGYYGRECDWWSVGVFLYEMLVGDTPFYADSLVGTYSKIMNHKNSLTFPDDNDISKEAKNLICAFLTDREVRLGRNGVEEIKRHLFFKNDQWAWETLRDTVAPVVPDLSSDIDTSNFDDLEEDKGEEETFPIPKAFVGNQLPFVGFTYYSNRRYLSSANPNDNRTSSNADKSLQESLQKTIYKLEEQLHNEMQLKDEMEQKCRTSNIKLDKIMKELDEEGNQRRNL
# Protocol Text: ROCK inhibition assay, LANCE Ultra TR-FRET kinase assay (ROCK1)
# Measurement Setup: 1 μM ATP, 50 nM ULight-CREBtide substrate
Attribute: IC50
Assay Endpoint: IC50

CC(=O)Nc1cccc(Cn2ccc3cc(-c4conc4C)ccc3c2=O)c1 : 101 to 500 nM
C[C@H](c1cccc(C(=O)NCC2COC2)c1)n1cnc2cc(-c3cn[nH]c3C(F)(F)F)ccc2c1=O : 11 to 100 nM
Nc1cc(-c2ccc3c(=O)n(Cc4cccc(C(=O)NCC5CCOCC5)c4)cnc3c2)ccn1 : 11 to 100 nM
O=C(N[C@H]1CC[C@H](O)CC1)c1cc(F)cc(Cn2ccc3cc(-c4c[nH]nc4Cl)ncc3c2=O)c1 : 11 to 100 nM
CNC(=O)c1cccc(Cn2cc(CC(C)O)c3cc(-c4c[nH]nc4N)ccc3c2=O)c1 (stereo not shown) : 11 to 100 nM
Cc1nocc1-c1ccc2c(=O)n(Cc3cc(F)cc(C(=O)NCC4CCN(CC(F)(F)F)CC4)c3)ccc2c1 : 101 to 500 nM
Cc1nocc1-c1ccc2c(=O)n(Cc3cccc(C(=O)NCC4CCNCC4)c3)cnc2c1 : < 10 nM
O=C(NC1CCN(C2COC2)CC1)c1cccc(Cn2ccc3cc(-c4c[nH]nc4C(F)(F)F)ccc3c2=O)c1 : 101 to 500 nM
CNC(=O)c1cccc([C@@H](C)n2cnc3cc(-c4cn[nH]c4Br)ccc3c2=O)c1 : 11 to 100 nM
CC(=O)Nc1cccc(Cn2ccc3cc(-c4cn[nH]c4)ccc3c2=O)c1 : 101 to 500 nM
CNC(=O)c1cccc(Cn2ccc3cc(-c4conc4C)cnc3c2=O)c1 : > 501 nM
CNC(=O)c1cc(F)cc(Cn2cnc3cc(-c4conc4C)ccc3c2=O)c1 : 11 to 100 nM
CNC(=O)c1cccc(Cn2cc(CC(C)O)c3cc(-c4cn[nH]c4Cl)ccc3c2=O)c1 (stereo not shown) : < 10 nM
Cc1nocc1-c1ccc2c(=O)n(Cc3cc(F)cc(C(=O)Nc4ccc5c(c4)CCNC5)c3)ccc2c1 : < 10 nM
Cn1nccc1-c1ccc2c(=O)n(Cc3cc(F)cc(C(=O)NCC4CCNCC4)c3)ccc2c1 : 11 to 100 nM
CNC(=O)c1cccc(Cn2cc(C(C)O)c3cc(-c4ccnc(N)c4)ccc3c2=O)c1 (stereo not shown) : 11 to 100 nM
COc1cccc([C@@H](CO)N2CNc3cc(-c4ccnn4C)ccc3C2=O)c1 : > 501 nM
CN1CCC(CNC(=O)c2cccc(Cn3cnc4cc(-c5cn[nH]c5Cl)ccc4c3=O)c2)CC1 : < 10 nM
O=C(N[C@H]1CC[C@H](O)CC1)c1cccc(Cn2cnc3cc(-c4cn[nH]c4C(F)(F)F)ccc3c2=O)c1 : 11 to 100 nM
CC(=O)Nc1cccc(Cn2ccc3cc(-c4cnoc4C)ccc3c2=O)c1 : 101 to 500 nM
Cc1n[nH]cc1-c1ccc2c(=O)n(Cc3cccc(C(=O)Nc4cccc(S(N)(=O)=O)c4)c3)ccc2c1 : > 501 nM
[2H]C([2H])([2H])NC(=O)c1cccc(Cn2ccc3cc(-c4cn[nH]c4C(F)(F)F)ccc3c2=O)c1 : 11 to 100 nM
[2H]C([2H])([2H])NC(=O)c1cccc(Cn2ccc3cc(-c4cn[nH]c4F)ccc3c2=O)c1 : 11 to 100 nM
NCC(c1cccc(Cl)c1)n1cnc2cc(-c3cn[nH]c3Cl)ccc2c1=O (stereo not shown) : < 10 nM
CN1CCC(CNC(=O)c2cccc(Cn3ccc4cc(-c5c[nH]nc5C(F)(F)F)ccc4c3=O)c2)CC1 : < 10 nM
COc1cccc(Cn2cnc3cc(-c4cn[nH]c4)ccc3c2=O)c1 : 11 to 100 nM
Cn1nccc1-c1ccc2c(=O)n(Cc3cccc(C(=O)NCC(F)(F)F)c3)ccc2c1 : 101 to 500 nM
O=C(NC1CCN(CC(F)F)CC1)c1cccc(Cn2ccc3cc(-c4c[nH]nc4C(F)(F)F)ccc3c2=O)c1 : 101 to 500 nM
Cc1nocc1-c1ccc2c(=O)n([C@H](C)c3cccc(C(=O)N(C)C)c3)cnc2c1 : > 501 nM
CNC(=O)c1cccc(Cn2cc(CCO)c3cc(-c4cn[nH]c4F)ccc3c2=O)c1 : 11 to 100 nM
Cc1nocc1-c1ccc2c(=O)n(Cc3cccc(C(=O)NCC4CCN(C)CC4)c3)ccc2c1 : 11 to 100 nM

* * *

Attribute: IC50
# Test System: Recombinant ROCK1 (amino acids 1-477) (Homo sapiens)
# Construct: Recombinant ROCK1 (amino acids 1-477); by word order, ROCK1 from Carna Biosciences
# Protocol Text: ROCK inhibition assay, LANCE Ultra TR-FRET kinase assay (ROCK1)
# Measurement Setup: 1 μM ATP, 50 nM ULight-CREBtide substrate
Assay Endpoint: IC50

C[C@H](c1cccc(C(=O)N(C)C)c1)n1cnc2cc(-c3cn[nH]c3C(F)(F)F)ccc2c1=O : > 501 nM
CC(O)c1cn(Cc2cccc(C(=O)NC3COC3)c2)c(=O)c2ccc(-c3c[nH]nc3C(F)(F)F)cc12 (stereo not shown) : 11 to 100 nM
C[C@H](c1cccc(C(=O)N(C)Cc2ccncc2)c1)n1cnc2cc(-c3cn[nH]c3C(F)(F)F)ccc2c1=O : > 501 nM
C[C@H](c1cccc(C(=O)Nc2ccon2)c1)n1cnc2cc(-c3cn[nH]c3C(F)(F)F)ccc2c1=O : 101 to 500 nM

* * *

# System: ROCK1/2 in A7r5 cells (pMLC2 levels)
# Protocol Text: Inhibition of ROCK1/2 in A7r5 cells, cell-based ELISA of phospho-myosin light chain (pMLC2, Thr18/Ser19)
# Measurement Setup: Rattus norvegicus, 1.5 h, treated with test compounds for 90 minutes, read-out: pMLC2 (cellular EC50)
pEC50: −log10 of the molar value.
Assay Endpoint: pEC50

CNC(=O)c1cccc([C@@H](C)n2cnc3cc(-c4cn[nH]c4C(F)(F)F)ccc3c2=O)c1 [Compound 440] : 6.30 to 7.00
CNC(=O)c1cccc(Cn2ccc3cc(-c4ccnc(N)c4)ccc3c2=O)c1 [Compound 326] : 6.30 to 7.00
CN(C)Cc1ccccc1Cn1ccc2cc(-c3ccnc(N)c3)ccc2c1=O [Compound 25] : 6.30 to 7.00
CNC(=O)c1cccc([C@@H](C)n2cnc3cc(-c4conc4C)ccc3c2=O)c1 [Compound 469] : > 7.00
Cn1nccc1-c1ccc2c(=O)n(Cc3cccc(O)c3)ccc2c1 [Compound 12] : 6.30 to 7.00
Cc1nocc1-c1ccc2c(=O)n(Cc3cccc(C(=O)NC4COC4)c3)ccc2c1 [Compound 146] : 6.00 to 6.30
Cn1ccc(NC(=O)c2cccc(Cn3ccc4cc(-c5ccnc(N)c5)ccc4c3=O)c2)n1 [Compound 200] : > 7.00
CNC(=O)c1cccc(Cn2ccc3cc(-c4cn[nH]c4C(F)(F)F)ccc3c2=O)c1 [Compound 280] : 6.00 to 6.30
Nc1cc(-c2ccc3c(=O)n(Cc4cccc(C(=O)Nc5ccc6c(c5)CCNC6)c4)ccc3c2)ccn1 [Compound 188] : > 7.00
Cc1nocc1-c1ccc2c(=O)n(Cc3cccc(C(=O)NC4CCN(CC(F)F)CC4)c3)ccc2c1 [Compound 86] : > 7.00
Cn1nccc1-c1ccc2c(=O)n(Cc3cccc(C(=O)NC4CCN(CC(F)F)CC4)c3)ccc2c1 [Compound 107] : 6.30 to 7.00
Nc1cc(-c2ccc3c(=O)n(Cc4cccc(C(=O)NCCc5ccccn5)c4)cnc3c2)ccn1 [Compound 437] : 6.30 to 7.00
CNC(=O)c1cccc(Cn2ccc3cc(-c4ccnn4C)ccc3c2=O)c1 [Compound 320] : < 6.00
CNC(=O)c1cc(F)cc(Cn2ccc3cc(-c4conc4C)ccc3c2=O)c1 [Compound 315] : 6.00 to 6.30
CNC(=O)c1cccc([C@@H](C)n2cnc3cc(-c4cn[nH]c4Cl)ccc3c2=O)c1 [Compound 466] : > 7.00
Cc1n[nH]cc1-c1ccc2c(=O)n(Cc3cccc(C(=O)NCCc4ccccn4)c3)ccc2c1 [Compound 31] : > 7.00
